Measured values drawn from ChEMBL document CHEMBL1177814 for this set.

# System: MDA-MB-231
# procedureText: Cytotoxicity against human MDA-MB-231 cells after 72 hrs by SRB assay
# Type: functional
# particulars: MDA-MB-231, 72 h, read-out: ED50 (the source's name)
measuredParameter: pEC50
// pEC50 is dimensionless: -log10 of concentration (M)

O=c1cc(NC2CC2)c2ccc3ccccc3c2o1 5.00
CCc1ccc(Nc2cc(=O)oc3c2ccc2ccccc23)cc1 5.85
CON(C)C(=O)CNc1cc(=O)oc2c1ccc1ccccc12 5.24
COc1cccc(Nc2cc(=O)oc3c2ccc2ccccc23)c1 5.89

**Q:** Specify measured pEC50 for `COC(=O)CNc1cc(=O)oc2c1ccc1ccccc12` .
**A:** 5.38

**Q:** Specify measured pEC50 for `O=c1cc(Nc2ccccc2)c2ccc3ccccc3c2o1` .
**A:** 6.57

**Q:** Specify measured pEC50 for `CCCNc1cc(=O)oc2c1ccc1ccccc12` .
**A:** 4.70

**Q:** Specify measured pEC50 for `O=c1cc(Nc2ccc(Br)cc2)c2ccc3ccccc3c2o1` .
**A:** 5.17

----------
# System: MDA-MB-231
# procedureText: Cytotoxicity against human MDA-MB-231 cells after 72 hrs by SRB assay
# Format: functional
# particulars: MDA-MB-231, 72 h, read-out: ED50 (the source's name)
measuredParameter: EC50 (µM)
Give the value, in units of µM, as a plain number.

# annotated cases, reported EC50 shown
Cc1ccc(Nc2cc(=O)oc3c2ccc2ccccc23)cc1 15.3
COc1ccc(Nc2cc(=O)oc3c2ccc2ccccc23)cc1 0.02

**Q:** // fetch EC50 for `O=c1cc(Nc2cccc3ccccc23)c2ccc3ccccc3c2o1` ; system: MDA-MB-231
**A:** 0.47

**Q:** // fetch EC50 for `O=c1cc(N2CCCCC2)c2ccc3ccccc3c2o1` ; system: MDA-MB-231
**A:** 30

**Q:** // fetch EC50 for `Cc1ccccc1Nc1cc(=O)oc2c1ccc1ccccc12` ; system: MDA-MB-231
**A:** 8.3

**Q:** // fetch EC50 for `CCCN(CCC)c1cc(=O)oc2c1ccc1ccccc12` ; system: MDA-MB-231
**A:** 30

**Q:** // fetch EC50 for `O=c1cc(NC2CCCCC2)c2ccc3ccccc3c2o1` ; system: MDA-MB-231
**A:** 4.1

----------
# System: KB
# procedureText: Cytotoxicity against human KB cells after 72 hrs by SRB assay
# Format: functional
# particulars: read-out: ED50 (the source's name)
pEC50: −log10 of the molar value.
Given measured pEC50, output rule met if it is greater than or equal to 6 and rule not met if not.

Before answering, review these 5 worked examples.
O=c1cc(Nc2ccccc2)c2ccc3ccccc3c2o1 rule met
CCc1ccc(Nc2cc(=O)oc3c2ccc2ccccc23)cc1 rule met
Cc1cccc2c1ccc1c3occ(C)c3c(=O)oc21 rule not met
O=c1cc(Nc2cccc3ccccc23)c2ccc3ccccc3c2o1 rule met
Cc1cccc(Nc2cc(=O)oc3c2ccc2ccccc23)c1 rule met

**Q:** Does the reported pEC50 for `O=c1cc(NC2CCCCC2)c2ccc3ccccc3c2o1` fall at or above the 6 mark?
**A:** rule met

**Q:** Does the reported pEC50 for `COC(=O)CNc1cc(=O)oc2c1ccc1ccccc12` fall at or above the 6 mark?
**A:** rule not met

**Q:** Does the reported pEC50 for `CCc1cccc2c1ccc1c(NCC(=O)N(C)OC)cc(=O)oc12` fall at or above the 6 mark?
**A:** rule not met

**Q:** Does the reported pEC50 for `CCCN(CCC)c1cc(=O)oc2c1ccc1ccccc12` fall at or above the 6 mark?
**A:** rule not met

**Q:** Does the reported pEC50 for `COc1cccc(Nc2cc(=O)oc3c2ccc2ccccc23)c1` fall at or above the 6 mark?
**A:** rule met

**Q:** Does the reported pEC50 for `Cc1ccc(Nc2cc(=O)oc3c2ccc2ccccc23)cc1` fall at or above the 6 mark?
**A:** rule met

**Q:** Does the reported pEC50 for `O=c1cc(N2CCOCC2)c2ccc3ccccc3c2o1` fall at or above the 6 mark?
**A:** rule not met

**Q:** Does the reported pEC50 for `O=c1cc(NC2CC2)c2ccc3ccccc3c2o1` fall at or above the 6 mark?
**A:** rule not met

**Q:** Does the reported pEC50 for `O=c1cc(Nc2cccc(Br)c2)c2ccc3ccccc3c2o1` fall at or above the 6 mark?
**A:** rule not met

**Q:** Does the reported pEC50 for `CNc1cc(=O)oc2c1ccc1ccccc12` fall at or above the 6 mark?
**A:** rule not met

**Q:** Does the reported pEC50 for `COc1ccccc1Nc1cc(=O)oc2c1ccc1ccccc12` fall at or above the 6 mark?
**A:** rule met
